meta.source: patent US6077840A

Target: progesterone receptor (Sus scrofa)
Sequence (D0EWS6 1-934): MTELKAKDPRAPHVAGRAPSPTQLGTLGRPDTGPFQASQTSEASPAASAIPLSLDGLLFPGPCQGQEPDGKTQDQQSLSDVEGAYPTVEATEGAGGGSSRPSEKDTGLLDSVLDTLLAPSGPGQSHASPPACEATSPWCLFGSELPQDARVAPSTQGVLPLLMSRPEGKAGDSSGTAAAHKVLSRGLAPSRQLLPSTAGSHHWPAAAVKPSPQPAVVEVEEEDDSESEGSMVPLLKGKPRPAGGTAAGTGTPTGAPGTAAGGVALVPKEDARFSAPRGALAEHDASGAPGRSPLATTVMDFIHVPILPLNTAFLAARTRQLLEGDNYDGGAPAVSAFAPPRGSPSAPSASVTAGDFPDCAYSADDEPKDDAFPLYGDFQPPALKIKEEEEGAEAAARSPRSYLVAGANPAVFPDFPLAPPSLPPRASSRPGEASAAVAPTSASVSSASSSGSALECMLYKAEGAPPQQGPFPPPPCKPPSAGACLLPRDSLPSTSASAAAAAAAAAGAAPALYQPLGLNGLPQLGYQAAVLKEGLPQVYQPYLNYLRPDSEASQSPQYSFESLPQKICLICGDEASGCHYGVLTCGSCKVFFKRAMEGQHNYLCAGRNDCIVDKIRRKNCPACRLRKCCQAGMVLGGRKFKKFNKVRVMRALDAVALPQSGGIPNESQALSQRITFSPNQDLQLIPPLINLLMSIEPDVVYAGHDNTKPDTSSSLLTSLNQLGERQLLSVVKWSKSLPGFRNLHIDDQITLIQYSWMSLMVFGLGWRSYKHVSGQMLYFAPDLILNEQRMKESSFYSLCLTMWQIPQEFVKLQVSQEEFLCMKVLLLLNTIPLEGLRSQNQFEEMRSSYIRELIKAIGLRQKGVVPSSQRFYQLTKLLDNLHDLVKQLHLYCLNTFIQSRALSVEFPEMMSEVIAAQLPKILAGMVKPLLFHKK
This section presents compounds with their documented pIC50 values.
Note on pIC50: it is the negative log10 of concentration, concentration in mol/L.

Previously resolved entries follow.
CCC(=O)O[C@H]1[C@H](OC)C=C2C=C3C(=C(C)C(=O)N3C)C[C@]2(C)[C@H]1C [Example 26] :: 7.77
C=CCO[C@H]1[C@H](OC)C=C2C=C3C(=C(C)C(=O)N3C)C[C@]2(C)[C@H]1C [Example 41] :: 7.36
CO[C@@H]1C=C2C=C3C(=C(C)C(=O)N3C)C[C@]2(C)[C@@H](C)[C@H]1OC(C)=O [Example 25] :: 7.60
CC1=C2C[C@@]3(C)C(=CC[C@H](OC(=O)n4ccnc4)[C@@H]3C)C=C2N(C)C1=O [Example 115] :: 7.66
CCS[C@@H]1C=C2C=C3C(=C(C)C(=O)N3C)C[C@]2(C)[C@@H](C)[C@H]1OC(=O)n1ccnc1 [Example 106] :: 6.86
CCS[C@@H]1C=C2C=C3C(=C(C)C(=O)N3C)C[C@]2(C)[C@@H](C)[C@H]1OC(=O)CC [Example 101] :: 6.79

Turning to the following compound.
Query block: Item under review: CC1=C2C[C@@]3(C)C(=CC[C@H](OC(=O)N4CCCC4)[C@@H]3C)C=C2N(C)C1=O [Example 117] . Reported pIC50?
Result block: 7.51

----------
Biological target: progesterone receptor (Sus scrofa)
Sequence (D0EWS6 1-934): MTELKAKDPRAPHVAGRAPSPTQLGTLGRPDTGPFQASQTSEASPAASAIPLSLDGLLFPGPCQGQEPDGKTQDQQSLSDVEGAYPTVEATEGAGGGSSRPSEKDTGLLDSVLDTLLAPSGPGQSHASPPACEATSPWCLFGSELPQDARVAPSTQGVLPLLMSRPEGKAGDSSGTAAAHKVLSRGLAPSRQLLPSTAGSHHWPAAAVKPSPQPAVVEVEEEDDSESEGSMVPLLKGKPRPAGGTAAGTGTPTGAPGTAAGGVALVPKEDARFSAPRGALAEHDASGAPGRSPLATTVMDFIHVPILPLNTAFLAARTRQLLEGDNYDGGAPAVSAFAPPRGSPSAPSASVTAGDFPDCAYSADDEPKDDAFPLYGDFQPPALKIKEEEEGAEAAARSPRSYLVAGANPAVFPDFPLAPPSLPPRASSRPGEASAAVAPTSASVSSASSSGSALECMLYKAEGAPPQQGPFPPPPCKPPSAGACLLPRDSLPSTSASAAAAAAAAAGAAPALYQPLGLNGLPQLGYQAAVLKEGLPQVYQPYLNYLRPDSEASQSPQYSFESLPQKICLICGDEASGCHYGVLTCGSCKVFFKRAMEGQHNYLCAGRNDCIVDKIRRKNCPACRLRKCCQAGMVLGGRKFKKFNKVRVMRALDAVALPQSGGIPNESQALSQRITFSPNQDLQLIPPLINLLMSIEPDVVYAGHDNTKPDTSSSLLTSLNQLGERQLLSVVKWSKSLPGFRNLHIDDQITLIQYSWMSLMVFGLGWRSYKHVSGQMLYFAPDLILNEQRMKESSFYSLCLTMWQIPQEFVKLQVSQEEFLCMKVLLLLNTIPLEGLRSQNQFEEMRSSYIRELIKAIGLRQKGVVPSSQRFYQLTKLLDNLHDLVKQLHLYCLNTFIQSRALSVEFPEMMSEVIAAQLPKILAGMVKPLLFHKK
test_readout: IC50 (nM)
Output spec: scalar in nM, unitless text.

CS[C@@H]1C=C2C=C3C(=C(C)C(=O)N3C)C[C@]2(C)[C@@H](C)[C@H]1OC(=O)n1ccnc1 :: 66
CCCO[C@H]1[C@H](OC)C=C2C=C3C(=C(C)C(=O)N3C)C[C@]2(C)[C@H]1C :: 51
CCO[C@H]1[C@H](OC)C=C2C=C3C(=C(C)C(=O)N3C)C[C@]2(C)[C@H]1C :: 36

Turning to the following compound.
Query block: Item under review: `CCS[C@@H]1C=C2C=C3C(=C(C)C(=O)N3C)C[C@]2(C)[C@@H](C)[C@H]1O` . Reported IC50?
Result block: 119
